Task for the reader: assign each of the following compounds its reported Activity.
- target-entity: GABA-A receptor; alpha-1/beta-3/gamma-2 (Homo sapiens) (UniProt P14867+P18507+P28472)
- test-details: Negative allosteric modulation activity at human recombinant alpha1beta3gamma2 GABAA receptor stably expressed in HEK293 cells assessed as modulation at alpha1 subunit at 10 uM by Patch clamp method
- Type: cell-based
- applied-conditions: filed as negative allosteric modulator
One number for each entry, in %.

// known answers, use as guide
CC(=O)N1CCc2nc(OCc3c(C)nnn3-c3ccc(F)cc3)ccc2C1	0
Cc1onc(-c2ccc(F)cc2)c1COc1ccc2c(n1)CCN(Cc1ccno1)C2=O	-10
Cc1onc(-c2ccc(F)cc2)c1COc1ccc2c(n1)CCN(C(C)C)C2=O	-2
Cc1nnn(-c2ccc(F)cc2)c1COc1ccc2c(n1)CCN(C(=O)C1CCOC1)C2 (centres undefined)	-7

Respectfully, I request Activity for each entry included below.
1. Cc1onc(-c2ccc(F)cc2)c1COc1ccc2c(n1)CCN(CC1CCCS1(=O)=O)C2=O (centres undefined)
2. Cc1onc(-c2ccc(F)cc2)c1COc1ccc2c(n1)CCN(C)C2=O
3. Cc1onc(-c2ccc(F)cc2)c1COc1ccc(C(=O)N2CCS(=O)(=O)CC2)cn1
4. Cc1nnn(-c2ccc(F)cc2)c1COc1ccc2c(n1)CCN(C(=O)C1CCCO1)C2 (centres undefined)
5. Cc1onc(-c2ccc(F)cc2)c1COc1ccc2c(n1)CCN(C(=O)C1CCOC1)C2 (centres undefined)

1: -12; 2: -8; 3: -2; 4: -8; 5: -14

Respectfully, I request Activity for each entry included below.
1. Cc1nnn(-c2ccc(F)cc2)c1COc1ccc2c(n1)CCN(C(=O)NC1CC(=O)N(C)C1)C2 (centres undefined)
2. Cc1onc(-c2ccc(F)cc2)c1COc1ccc2c(n1)CCN(C1CCOC1)C2=O (centres undefined)
3. Cc1onc(-c2ccc(F)cc2)c1COc1ccc2c(n1)CCNC2=O
4. Cc1onc(-c2ccc(F)cc2)c1COc1ccc2c(n1)CCN(CC1CCCO1)C2=O (centres undefined)
5. Cc1onc(-c2ccc(F)cc2)c1COc1ccc2c(n1)CCN(CCS(C)(=O)=O)C2=O

-3
-10
2
-6
-12

====

- target-entity: Cytochrome P450 2D6 (Homo sapiens, UniProt P10635)
- Sequence (P10635 whole entry): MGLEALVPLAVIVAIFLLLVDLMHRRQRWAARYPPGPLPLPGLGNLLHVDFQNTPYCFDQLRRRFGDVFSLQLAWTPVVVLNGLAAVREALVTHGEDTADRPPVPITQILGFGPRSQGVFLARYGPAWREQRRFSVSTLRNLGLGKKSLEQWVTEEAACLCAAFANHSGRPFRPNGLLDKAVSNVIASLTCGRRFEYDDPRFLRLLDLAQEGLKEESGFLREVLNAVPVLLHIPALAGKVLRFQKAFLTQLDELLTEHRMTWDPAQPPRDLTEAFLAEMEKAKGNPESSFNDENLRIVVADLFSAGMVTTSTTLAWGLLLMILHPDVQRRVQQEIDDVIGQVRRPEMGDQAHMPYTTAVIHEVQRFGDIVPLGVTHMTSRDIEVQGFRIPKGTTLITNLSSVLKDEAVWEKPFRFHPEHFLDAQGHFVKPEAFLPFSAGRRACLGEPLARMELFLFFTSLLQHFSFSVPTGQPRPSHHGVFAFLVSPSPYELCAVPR
pIC50: −log10 of the molar value.
reported-property: pIC50

Record "Cc1onc(-c2ccc(F)cc2)c1COc1ccc2c(n1)CCN(C(=O)CS(C)(=O)=O)C2" , field pIC50: < 4.30

====

- target-entity: GABA-A receptor; alpha-5/beta-3/gamma-2 (Homo sapiens) (UniProt P18507+P28472+P31644)
- test-details: Negative allosteric modulation activity at human recombinant alpha5beta3gamma2 GABAA receptor stably expressed in HEK293 cells assessed as modulation at alpha5 subunit at 1 uM by Patch clamp method
- Assay type: cell-based
- applied-conditions: filed as negative allosteric modulator
Everything with Activity lower than -20% is False; everything else, including exactly -20%, is True.

Would you please look over these solved cases?
CC(=O)N1Cc2ccc(OCc3c(C)nnn3-c3ccc(F)cc3)nc2C1	True
Cc1onc(-c2ccc(F)cc2)c1COc1ccc2c(n1)CCNC2=O	False
Cc1onc(-c2ccc(F)cc2)c1COc1ccc2c(n1)CCN(C(=O)C1CCOC1)C2 (stereo not given)	False
Cc1onc(-c2ccc(F)cc2)c1COc1ccc2c(n1)CCN(Cc1ccno1)C2=O	False
Cc1nnn(-c2ccc(F)cc2)c1COc1ccc2c(n1)CCN(C(=O)NC1CC(=O)N(C)C1)C2 (stereo not given)	False

Is the recorded value of Activity equal to or greater than -20% for this compound? "Cc1onc(-c2ccc(F)cc2)c1COc1ccc2c(n1)CCN(C(=O)C1CCC1)C2" True

Is the recorded value of Activity equal to or greater than -20% for this compound? "Cc1onc(-c2ccc(F)cc2)c1COc1ccc(C(=O)N2CCS(=O)(=O)CC2)cn1" False

Is the recorded value of Activity equal to or greater than -20% for this compound? Cc1onc(-c2ccc(F)cc2)c1COc1ccc2c(n1)CCN(CC1CCCS1(=O)=O)C2=O (stereo not given) False

Is the recorded value of Activity equal to or greater than -20% for this compound? Cc1onc(-c2ccc(F)cc2)c1COc1ccc2c(n1)CCN(C1CCOC1)C2=O (stereo not given) False

Is the recorded value of Activity equal to or greater than -20% for this compound? "CC(=O)N1CCc2nc(OCc3c(C)nnn3-c3ccc(F)cc3)ccc2C1" False

Is the recorded value of Activity equal to or greater than -20% for this compound? Cc1nnn(-c2ccc(F)cc2)c1COc1ccc2c(n1)CCN(C(=O)C1CCCO1)C2 (stereo not given) False

Is the recorded value of Activity equal to or greater than -20% for this compound? Cc1nnn(-c2ccc(F)cc2)c1COc1ccc2c(n1)CCN(C(=O)NC1CCOC1)C2 (stereo not given) False

Is the recorded value of Activity equal to or greater than -20% for this compound? "Cc1onc(-c2ccc(F)cc2)c1COc1ccc2c(n1)CCN(Cc1ccco1)C2=O" True

Is the recorded value of Activity equal to or greater than -20% for this compound? "Cc1onc(-c2ccc(F)cc2)c1COc1cc2c(cn1)C(=O)NCC2" True

Is the recorded value of Activity equal to or greater than -20% for this compound? "Cc1onc(-c2ccc(F)cc2)c1COc1ccc2c(n1)CCN(CCS(C)(=O)=O)C2=O" False

Is the recorded value of Activity equal to or greater than -20% for this compound? "Cc1onc(-c2ccc(F)cc2)c1COc1ccc2c(n1)CCN(C(C)C)C2=O" True

Is the recorded value of Activity equal to or greater than -20% for this compound? "Cc1onc(-c2ccc(F)cc2)c1COc1ccc2c(c1)OCC(=O)N2C" True

====

- target-entity: GABA-A receptor; alpha-5/beta-3/gamma-2 (Homo sapiens) (UniProt P18507+P28472+P31644)
- test-details: Negative allosteric modulation activity at human recombinant alpha5beta3gamma2 GABAA receptor stably expressed in HEK293 cells assessed as modulation at alpha5 subunit at 10 uM by Patch clamp method
- Type: cell-based
- applied-conditions: filed as negative allosteric modulator
reported-property: Activity (%)
Give bare numbers, in %.

Cc1onc(-c2ccc(F)cc2)c1COc1ccc2c(n1)CCN(C(=O)C1CC1)C2	-34
Cc1onc(-c2ccc(F)cc2)c1COc1ccc2c(n1)CCN(C(=O)CCS(C)(=O)=O)C2	-35
Cc1onc(-c2ccc(F)cc2)c1COc1ccc2c(n1)CCN(C)C2=O	-31
Cc1onc(-c2ccc(F)cc2)c1COc1ccc(C(=O)N2CCS(=O)(=O)CC2)cn1 [BASMISANIL]	-25

Record "Cc1onc(-c2ccc(F)cc2)c1COc1ccc2c(n1)CCN(C(=O)N1CCCC1)C2" , field Activity: -36

====

- test-details: Apparent permeability in human Caco-2 cells at 1 uM by HPLC-UV analysis
- Assay type: ADME, cell-based
reported-property: Papp at 1 µM
Your answer should be a number followed by the unit of measure.

Record "Cc1onc(-c2ccc(F)cc2)c1COc1ccc2c(n1)CCN(C(=O)CS(C)(=O)=O)C2" , field Papp at 1 µM: 43 ×10⁻⁶ cm/s

====

- test-details: […] in po dosed PTZ-induced seizure mouse model assessed as NOAEL by seizure test
- Type: organism-based
- applied-conditions: in vivo
reported-property: NOAEL

Record "Cc1onc(-c2ccc(F)cc2)c1COc1ccc2c(n1)CCN(C(=O)CS(C)(=O)=O)C2" , field NOAEL: ≥ 30 mg/kg

====

- target-entity: GABA-A receptor; alpha-5/beta-3/gamma-2 (Homo sapiens) (UniProt P18507+P28472+P31644)
- test-details: Negative allosteric modulation activity at human recombinant alpha5beta3gamma2 GABAA receptor stably expressed in HEK293 cells assessed as modulation at alpha5 subunit at 10 uM by Patch clamp method
- Format: cell-based
- applied-conditions: filed as negative allosteric modulator
reported-property: Activity
Your answer should be a number followed by the unit of measure.

// known answers, use as guide
Cc1onc(-c2ccc(F)cc2)c1COc1ccc2c(n1)CCN(Cc1ccco1)C2=O	-31%
Cc1onc(-c2ccc(F)cc2)c1COc1ccc2c(n1)CCN(CC1CCCS1(=O)=O)C2=O (centres undefined)	-36%
Cc1onc(-c2ccc(F)cc2)c1COc1ccc2c(n1)CCN(C(=O)C1CCOC1)C2 (centres undefined)	-40%
CC(=O)N1CCc2nc(OCc3c(-c4ccc(F)cc4)noc3C)ccc2C1	-16%
Cc1nnn(-c2ccc(F)cc2)c1COc1ccc2c(n1)CCN(C(=O)NC1CC(=O)N(C)C1)C2 (centres undefined)	-35%
Cc1onc(-c2ccc(F)cc2)c1COc1ccc2c(n1)CCN(C(=O)C1CCOCC1)C2	-37%

Respectfully, I request Activity for each entry included below.
1. Cc1nnn(-c2ccc(F)cc2)c1COc1ccc2c(n1)CCN(C(=O)C1CCCO1)C2 (centres undefined)
2. Cc1onc(-c2ccc(F)cc2)c1COc1ccc2c(n1)CCNC2=O
3. Cc1nnn(-c2ccc(F)cc2)c1COc1ccc2c(n1)CCN(C(=O)C1CC(=O)N(C)C1)C2 (centres undefined)

["-43%", "-42%", "-47%"]
